Target: Glutamate receptor ionotropic, NMDA 1 glycine site (Sus scrofa)
Test: Tested for the affinity for the glycine binding site of the N-methyl-D-aspartate glutamate receptor using pig brain membranes in binding assay with [3H]-MDL- 105,519
Classes (Ki): lower band = under 0.06 µM, central band = from 0.06 µM up to 0.3 µM, upper band = 0.3 µM and over

Enquiry: Determine which band this compound sits in: O=C(O)c1[nH]c2cc(Cl)cc(Cl)c2c1Cn1cc(O)n(-c2ccc(Cl)cc2)c1=O
Return: central band

Continuing:
Enquiry: Class (by measured Ki) for CC(=O)c1cccc(-n2c(O)cn(Cc3c(C(=O)O)[nH]c4cc(Cl)cc(Cl)c34)c2=O)c1
Return: lower band

Enquiry: For the record Cc1c(O)n(-c2ccccc2)c(=O)n1Cc1c(C(=O)O)[nH]c2cc(Cl)cc(Cl)c12 , report the class its Ki corresponds to.
Return: upper band

* * *

For each entry below, report its log10(Ki) value.
Biological target: Glutamate receptor ionotropic, NMDA 1 glycine site (Sus scrofa)
Test: Tested for the affinity for the glycine binding site of the N-methyl-D-aspartate glutamate receptor using pig brain membranes in binding assay with [3H]-MDL- 105,519
A value of 2 here means Ki of 100 in µM, since values are log10.

The cases that follow already have their log10(Ki) on record.
Enquiry: For the record CC(=O)c1ccc(-n2c(O)cn(Cc3c(C(=O)O)[nH]c4cc(Cl)cc(Cl)c34)c2=O)cc1 , what value of log10(Ki) is listed for Glutamate receptor ionotropic, NMDA 1 glycine site (Sus scrofa)?
Return: -0.82

Enquiry: Find log10(Ki) (Glutamate receptor ionotropic, NMDA 1 glycine site (Sus scrofa)) for the entry O=C(NCc1c(C(=O)O)[nH]c2cc(Cl)cc(Cl)c12)Nc1ccccc1
Return: -1.85

Enquiry: Provide the documented log10(Ki) with Glutamate receptor ionotropic, NMDA 1 glycine site (Sus scrofa) as the system for O=C(O)c1[nH]c2cc(Cl)cc(Cl)c2c1Cn1cc(O)n(C2CCCCC2)c1=O
Return: -0.89

Enquiry: Hi! What's the reported log10(Ki) for O=C(NCc1c(C(=O)O)[nH]c2cc(Cl)cc(Cl)c12)NS(=O)(=O)c1ccccc1 on Glutamate receptor ionotropic, NMDA 1 glycine site (Sus scrofa)?
Return: -1.14

Enquiry: Give the reported log10(Ki) for CCn1c(O)cn(Cc2c(C(=O)O)[nH]c3cc(Cl)cc(Cl)c23)c1=O (system: Glutamate receptor ionotropic, NMDA 1 glycine site (Sus scrofa)).
Return: 0.00

Enquiry: What is its log10(Ki) for Glutamate receptor ionotropic, NMDA 1 glycine site (Sus scrofa)? Entry: O=C(O)c1cc2c(Cl)cc(Cl)cc2[nH]1
Return: 0.46

Enquiry: Lookup: log10(Ki) / Glutamate receptor ionotropic, NMDA 1 glycine site (Sus scrofa) / O=C(O)c1[nH]c2cc(Cl)cc(Cl)c2c1Cn1cc(O)n(-c2cc(Cl)cc(Cl)c2)c1=O
Return: -1.10

Enquiry: Hi! What's the reported log10(Ki) for O=C(O)c1[nH]c2cc(Cl)cc(Cl)c2c1Cn1cc(O)n(-c2ccccc2)c1=O on Glutamate receptor ionotropic, NMDA 1 glycine site (Sus scrofa)?
Return: -1.66

For each listed entry, give its log10(Ki).
1. O=C(O)c1[nH]c2cc(Cl)cc(Cl)c2c1Cn1cc(O)n(-c2cccc(Cl)c2)c1=O
2. O=C(O)c1[nH]c2cc(Cl)cc(Cl)c2c1CNCc1ccccc1

Return:
1: -1.07; 2: 1.96

Enquiry: Find the measured log10(Ki): item O=C(O)c1[nH]c2cc(Cl)cc(Cl)c2c1CNS(=O)(=O)c1ccccc1 , target or system Glutamate receptor ionotropic, NMDA 1 glycine site (Sus scrofa).
Return: 0.00

* * *

Would you kindly list pKi for each of these compounds?
Molecular target: Glutamate receptor ionotropic, NMDA 1 glycine site (Sus scrofa)
Assay: Tested for the affinity for the glycine binding site of the N-methyl-D-aspartate glutamate receptor using pig brain membranes in binding assay with [3H]-MDL- 105,519
Answers are plain numbers, as −log10 of the molar value.

Examples with their reported pKi follow.
Enquiry: Recorded pKi for COc1ccc(-n2c(O)cn(Cc3c(C(=O)O)[nH]c4cc(Cl)cc(Cl)c34)c2=O)cc1 , please?
Return: 7.00

Enquiry: I am curious: what pKi value has been reported for O=C(O)c1[nH]c2cc(Cl)cc(Cl)c2c1CN1CCN(c2ccccc2)C1=O ?
Return: 7.24

Enquiry: Can you share its pKi? I mean this compound: O=C(O)c1[nH]c2cc(Cl)cc(Cl)c2c1Cn1cc(O)n(-c2ccccc2)c1=S
Return: 6.24

Enquiry: Entry CC(C)n1c(O)cn(Cc2c(C(=O)O)[nH]c3cc(Cl)cc(Cl)c23)c1=O has what pKi?
Return: 5.98

Enquiry: Given the entry Cc1ccc(-n2c(O)cn(Cc3c(C(=O)O)[nH]c4cc(Cl)cc(Cl)c34)c2=O)cc1 , report its measured pKi.
Return: 7.44

---
Enquiry: Consider the compound O=C(O)c1[nH]c2cc(Cl)cc(Cl)c2c1Cn1cc(O)n(-c2ccc(F)cc2)c1=O and give its measured pKi.
Return: 7.28

Cited source: BindingDB's records for doi:10.1021/jm020955n
